tested on: LOC_OS01G52050-cb004; assay: thermal shift delta Tm vs DMSO control; higher = stronger stabilization (binding); conditions: 12.5 µM; protein concentration 2 µM;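 note: purified Escherichia coli-expressed rice kinase domain construct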
Sequence (as listed by the source): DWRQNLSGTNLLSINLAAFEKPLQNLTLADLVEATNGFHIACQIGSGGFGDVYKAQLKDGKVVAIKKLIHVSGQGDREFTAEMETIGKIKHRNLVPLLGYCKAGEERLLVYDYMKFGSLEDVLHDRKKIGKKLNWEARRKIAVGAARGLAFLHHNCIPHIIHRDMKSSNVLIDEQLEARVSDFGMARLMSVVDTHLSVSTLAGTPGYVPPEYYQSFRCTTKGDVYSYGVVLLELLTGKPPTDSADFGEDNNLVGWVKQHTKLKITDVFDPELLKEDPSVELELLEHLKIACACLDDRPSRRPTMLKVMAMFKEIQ
If the reported thermal shift delta Tm equals or exceeds 1 °C, assign 1.0. If not, assign 0.0.

Worked examples, 3 molecules total:
smilesNotation: CN1CCN(c2ccc(Nc3cc(-c4cccc(-n5ccc6cc(C7CC7)cc(F)c6c5=O)c4CO)cn(C)c3=O)nc2)CC1
groupLabel: 0.0
//
smilesNotation: CN(C)C[C@@H]1CCn2cc(c3ccccc32)C2=C(C(=O)NC2=O)c2cn(c3ccccc23)CCO1
groupLabel: 0.0
//
smilesNotation: O=C1NCCc2[nH]c(-c3ccncc3)cc21
groupLabel: 1.0

Hello, I need to know if "CCNC(=O)Nc1ccc(-c2nc3c(c(N4CCOC[C@@H]4C)n2)CCN(C2COC2)C3)cc1" has measured thermal shift delta Tm not below 1 °C. Thanks!
0.0

Now the same for "NC(=O)c1cnc(N[C@@H]2CCCC[C@@H]2N)nc1Nc1cccc(-n2nccn2)c1"
1.0
